Listed here: items and their measured protein stability index.
B1: IKZF1 (parent)
chain: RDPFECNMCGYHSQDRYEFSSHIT

variants of: B1; assay: protein stability index of a GFP-peptide fusion (GPS, HEK-293T) (PSI 1-6); higher = more stable; conditions: c terminus: a fixed tail appended;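 further: lentivirally expressed fusions sorted by FACS into six bins by GFP to DsRed ratio, PSI derived from sequencing read proportions per bin multiplied by bin number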
Write the number on its own, no unit after it.

{"SEQUENCE_STRING": "RDPFECNMCGYHRQDRYEFSSHIT [S13R]", "ENDPOINT_RESULT": 2.04}
{"SEQUENCE_STRING": "RDPFECNMCGYHSQDRYEFSSGIT [H22G]", "ENDPOINT_RESULT": 2.17}
{"SEQUENCE_STRING": "RDPFECNMCGYHAQDRYEFSSHIT [S13A]", "ENDPOINT_RESULT": 2.26}
{"SEQUENCE_STRING": "CDPFECNMCGYHSQDRYEFSSHIT [R1C]", "ENDPOINT_RESULT": 2.47}
{"SEQUENCE_STRING": "RDPFESNMCGYHSQDRYEFSSHIT [C6S]", "ENDPOINT_RESULT": 2.5}

# ---- query variant ----
Incoming: Recorded protein stability index of RDPIECNMCGYHSQDRYEFSSHIT [F4I] , please.
Outgoing: 1.89
